Record: pIC50 reported on OXA-11 (Pseudomonas aeruginosa, UniProt Q06778).
Sequence (Q06778 21-266): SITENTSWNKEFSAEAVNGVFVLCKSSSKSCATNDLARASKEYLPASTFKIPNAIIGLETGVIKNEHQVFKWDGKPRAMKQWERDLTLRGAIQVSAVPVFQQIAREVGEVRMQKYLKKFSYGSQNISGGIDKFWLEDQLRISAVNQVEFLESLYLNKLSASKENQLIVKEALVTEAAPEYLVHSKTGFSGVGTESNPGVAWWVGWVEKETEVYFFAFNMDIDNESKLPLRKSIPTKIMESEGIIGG
API: returns pIC50 as number; meaning -log10 of concentration in mol/L.

Worked examples, 3 molecules total:
> print(dat)
                                   molecule                                testsystem  reading
1  O=C(Nc1ccn(C2=CC3CN(C2)C(=O)N3OS(=O)(=O)[O-])n1)c1nccs1.[Na+] (stereo not drawn) [Example 34]  OXA-11 (Pseudomonas aeruginosa, UniProt Q06778)     7.89
2  Nc1ncc(C(=O)Nc2ccn(C3=CC4CN(C3)C(=O)N4OS(=O)(=O)[O-])n2)s1.[Na+] (stereo not drawn) [Example 13]  OXA-11 (Pseudomonas aeruginosa, UniProt Q06778)     8.40
3  O=C(CCO)Nc1ccn(C2=CC3CN(C2)C(=O)N3OS(=O)(=O)[O-])n1.[Na+] (stereo not drawn) [Example 51]  OXA-11 (Pseudomonas aeruginosa, UniProt Q06778)     7.92

Exercise: Look at this molecule and give its reported pIC50. O=C1N2CC(n3ccnn3)=C[C@H](C2)N1OS(=O)(=O)O [Example 6]
Key: 7.68

Exercise: Field entry: N#Cc1cnn(C2=CC3CN(C2)C(=O)N3OS(=O)(=O)[O-])c1.[Na+] (stereo not drawn) [Example 8]
Key: 7.70

Exercise: Entry O=C(Nc1nncs1)c1ccn(C2=CC3CN(C2)C(=O)N3OS(=O)(=O)[O-])n1.[Na+] (stereo not drawn) [Example 84] please
Key: 7.66

Exercise: Entry O=C(Nc1ncns1)c1ccn(C2=CC3CN(C2)C(=O)N3OS(=O)(=O)O)n1 (stereo not drawn) [Example 79] please
Key: 7.72

Exercise: What would you report for O=C1N2CC(n3cc(CNCCO)nn3)=CC(C2)N1OS(=O)(=O)O (stereo not drawn) [Example 67] ?
Key: 6.60

Exercise: Also, O=C1N2CC(n3cncn3)=CC(C2)N1OS(=O)(=O)[O-].[Na+] (stereo not drawn) [Example 5] please.
Key: 7.85
